- System: MDA-MB-231
- Experiment Summary: NCI tumour cell line growth inhibition, 48 h
Activity calls are given as the source filed them. Rule as the data show it: active = GI50 up to about 1.1 µM and inactive = higher.
Attribute Measured: GI50

COc1ccccc1Nc1nc2c([nH]1)c(=O)n(C)c(=O)n2C; > 10 µM (inactive)
O=C(NCCO)c1c(O)c2ccccc2[nH]c1=O; > 100 µM (inactive)
CCOC(=O)C1=C(C)N(Cc2ccc(Cl)cc2Cl)C2(O)C(OC)CC(=O)C3C(=O)N(c4ccccc4)C(=O)C132 (stereo not given); 1.38 µM (inactive)

Recorded GI50 of "CCOC(=O)C(C)(C(=O)OCC)/C(Cl)=C\Cl" , please.
> 100 µM (inactive)

Entry to check: COC(=O)c1ccccc1C1CN=NC12Cc1ccc(C)c(C)c1C2=O (stereo not given)
40.2 µM (inactive)
